MEASURED TARGET: human FPR1 (Homo sapiens, UniProt P21462)
Sequence (P21462 whole entry): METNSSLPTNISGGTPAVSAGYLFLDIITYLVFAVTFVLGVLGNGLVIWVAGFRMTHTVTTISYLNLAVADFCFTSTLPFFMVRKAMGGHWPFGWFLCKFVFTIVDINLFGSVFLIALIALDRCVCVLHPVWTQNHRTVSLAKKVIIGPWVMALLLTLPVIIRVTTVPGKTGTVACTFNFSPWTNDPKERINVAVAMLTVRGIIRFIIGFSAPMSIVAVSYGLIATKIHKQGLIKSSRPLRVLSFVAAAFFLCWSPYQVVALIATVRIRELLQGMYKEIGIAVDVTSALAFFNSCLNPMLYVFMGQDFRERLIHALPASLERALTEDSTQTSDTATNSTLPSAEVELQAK
METHOD SUMMARY: FPR1 cyclic adenosine monophosphate (cAMP) assay
CONDITION LABEL: CHO cells overexpressing human FPR1; forskolin 10 μM; inhibition of cAMP production; HTRF; read-out: hFPR1 cAMP2 EC50
Let's look at some molecules and their measured EC50.

SMILES RECORD | MEASURED TARGET | ASSAY RESULT
COc1cc(Cl)cc(-n2c(=O)c(NC(=O)c3ccc(OC(F)F)cc3)c(-c3c(F)cc(OC)cc3F)n2C)c1 | human FPR1 (Homo sapiens, UniProt P21462) | > 10 µM
COc1cc(F)c(-c2c(NC(=O)c3ccc(OC(F)F)cc3)c(=O)n(-c3nc(C(C)(C)C)ccc3C#N)n2C)c(F)c1 | human FPR1 (Homo sapiens, UniProt P21462) | > 10 µM
COc1cccc(-n2c(=O)c(NC(=O)c3ccc(OC(F)F)cc3)c(-c3c(F)cc(OC)cc3F)n2C)c1 | human FPR1 (Homo sapiens, UniProt P21462) | 0.003 µM

Note: attention shifts to another entry.
q: Report EC50, nothing else, for this molecule: COc1cc(F)c(-c2c(NC(=O)c3ccc(OC(F)F)cc3)c(=O)n(-c3nc(C)ccc3C#N)n2C)c(F)c1
a: > 10 µM

---

MEASURED TARGET: human FPR2 (Homo sapiens)
Sequence (P25090 whole entry): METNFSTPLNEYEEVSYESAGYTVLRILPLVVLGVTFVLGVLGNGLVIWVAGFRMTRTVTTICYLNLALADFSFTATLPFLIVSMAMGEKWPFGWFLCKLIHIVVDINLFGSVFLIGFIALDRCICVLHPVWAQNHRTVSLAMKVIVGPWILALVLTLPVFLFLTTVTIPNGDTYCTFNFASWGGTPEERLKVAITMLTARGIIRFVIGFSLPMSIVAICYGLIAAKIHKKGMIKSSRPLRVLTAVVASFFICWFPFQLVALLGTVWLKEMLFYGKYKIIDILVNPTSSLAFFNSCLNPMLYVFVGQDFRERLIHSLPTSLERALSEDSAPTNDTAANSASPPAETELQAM
METHOD SUMMARY: FPR2 cyclic adenosine monophosphate (cAMP) assay
CONDITION LABEL: CHO cells overexpressing human FPR2; forskolin 5 μM; inhibition of cAMP production; HTRF; read-out: hFPR2 cAMP2 EC50
EXPERIMENTAL READOUT: EC50 (nM)

COMPOUND | ASSAY RESULT
CNc1ccc(C(F)(F)F)c(-n2c(=O)c(NC(=O)c3ccc(OC(F)F)cc3)c(-c3c(O)cc(OC)cc3F)n2C)n1 | 8

A = COc1ccc(-c2c(NC(=O)c3ccc(OC(F)F)cc3)c(=O)n(-c3ccccc3)n2C)cc1
B = COc1cc(F)c(-c2c(NC(=O)c3ccc(OC(F)F)cc3)c(=O)n(-c3cccc(C4CC4)n3)n2C)c(F)c1
q: Looking only at measured EC50, which entry is lower, A or B ? Give the chosen item's label as your response.
a: B

a = COc1cc(F)c(-c2c(NC(=O)c3ccc(OC(F)F)cc3)c(=O)n(-c3cc(C)cc(C)n3)n2C)c(F)c1
b = COc1cc(C2CCCNC2)nc(-n2c(=O)c(NC(=O)c3ccc(OC(F)F)cc3)c(-c3c(F)cc(OC)cc3F)n2C)c1 (centres unmarked) [Example 346]
q: So which one has the bigger EC50 here, a or b ? Response format: the label of the selected entry.
a: a
(a: 8 nM, b: 5 nM)

---

MEASURED TARGET: human FPR1 (Homo sapiens, UniProt P21462)
METHOD SUMMARY: FPR1 cyclic adenosine monophosphate (cAMP) assay
CONDITION LABEL: CHO cells overexpressing human FPR1; forskolin 10 μM; inhibition of cAMP production; HTRF; read-out: hFPR1 cAMP2 EC50
pEC50: −log10 of the molar value.
EXPERIMENTAL READOUT: pEC50

Examples from the recorded data:
SMILES RECORD | pEC50
COc1cc(F)c(-c2c(NC(=O)c3ccc(OC(F)F)cc3)c(=O)n(-c3cccc(NC(=O)C(C)(C)C)n3)n2C)c(F)c1 | 7.09
COc1cc(F)c(-c2c(NC(=O)c3ccc(OC(F)F)cc3)c(=O)n(-c3nc(N4CC(OC(C)C)C4)ccc3C(F)(F)F)n2C)c(F)c1 | 5.82

a = COc1cc(F)c(-c2c(NC(=O)c3ccc(OC(F)F)cc3)c(=O)n(-c3cccc(N4CC[C@H](O)C4)n3)n2C)c(F)c1
b = COc1ccc(-c2c(NC(=O)c3ccc(OC(F)F)cc3)c(=O)n(-c3ccccc3)n2C)cc1
q: // compare measured pEC50 between a and b ; output the lower one # respond with the chosen item's label
a: a
